Values from paper PMC2253824

target: T1, human HSP90 protein 1 beta (HSPCB), two-hybrid fusion in pEG202 (human, UniProt P08238 1-724); assay: two-hybrid; quantitative liquid beta-galactosidase assays; values as a percentage of the cdc6/TTC4 interaction; settings: partners not purified
T1 construct: HSP90 protein 1 beta (HSPCB), human full length cDNA clone from Origene, cloned in the Not1 and Xho1 sites of pEG202; also called HuHSP90; huHSP90; source: yeast two-hybrid fusion
T1 sequence (P08238 whole entry, the tested form may be a part): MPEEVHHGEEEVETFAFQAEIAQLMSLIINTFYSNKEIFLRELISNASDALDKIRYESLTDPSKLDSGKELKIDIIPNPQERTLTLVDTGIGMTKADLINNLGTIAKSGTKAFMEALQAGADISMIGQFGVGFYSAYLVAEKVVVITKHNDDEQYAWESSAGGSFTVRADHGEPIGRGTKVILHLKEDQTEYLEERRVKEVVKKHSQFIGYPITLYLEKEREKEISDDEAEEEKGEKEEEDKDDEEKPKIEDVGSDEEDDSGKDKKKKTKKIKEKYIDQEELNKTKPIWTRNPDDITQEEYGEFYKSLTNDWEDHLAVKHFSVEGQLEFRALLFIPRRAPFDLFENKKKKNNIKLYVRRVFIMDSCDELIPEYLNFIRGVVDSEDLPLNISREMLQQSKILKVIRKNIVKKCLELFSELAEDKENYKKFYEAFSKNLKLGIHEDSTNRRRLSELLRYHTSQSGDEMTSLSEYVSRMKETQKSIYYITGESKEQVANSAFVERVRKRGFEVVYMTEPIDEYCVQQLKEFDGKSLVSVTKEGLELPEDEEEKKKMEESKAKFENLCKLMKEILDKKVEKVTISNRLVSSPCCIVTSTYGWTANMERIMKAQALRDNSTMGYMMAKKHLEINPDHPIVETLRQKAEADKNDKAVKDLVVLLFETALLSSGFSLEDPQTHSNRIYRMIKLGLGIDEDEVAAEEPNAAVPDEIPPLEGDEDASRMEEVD
assay endpoint: two-hybrid beta-galactosidase, percentage of the cdc6/TTC4 interaction (%)
Enter your answer as a number in %; do not include the unit.

Prompt: Need two-hybrid beta-galactosidase, percentage of the cdc6/TTC4 interaction of TTC4-201TG (67IM), two-hybrid fusion in pJG4.5 (natural protein, human, UniProt O95801 1-387, looked up, TTC4, human, with a point mutation reported in melanoma samples, made by site-directed mutagenesis in TTC4 (pJG4.5); also called TTC4 codon 67 I to M; source: yeast two-hybrid fusion) MEQPGQDPTSDDVMDSFLEKFQSQPYRGGFHEDQWEKEFEKVPLFMSRAPSEIDPRENPDLACLQSMIFDEERSPEEQAKTYKDEGNDYFKEKDYKKAVISYTEGLKKKCADPDLNAVLYTNRAAAQYYLGNFRSALNDVTAARKLKPCHLKAIIRGALCHLELKHFAEAVNWCDEGLQIDAKEKKLLEMRAKADKLKRIEQRDVRKANLKEKKERNQNEALLQAIKARNIRLSEAACEDEDSASEGLGELFLDGLSTENPHGARLSLDGQGRLSWPVLFLYPEYAQSDFISAFHEDSRFIDHLMVMFGETPSWDLEQKYCPDNLEVYFEDEDRAELYRVPAKSTLLQVLQHQRYFVKALTPAFLVCVGSSPFCKNFLRGRKVYQIR , thanks.
Response: 90
